experiment: Small-animal PET/CT and biodistribution in mice bearing s.c. PC-3 xenografts; details: male, nude BALB/c, mouse, blood, iv, 200 pmol, total radioactivity, remaining in blood, 2 h p.i.
outcome measure: tissue uptake at 2 h (%ID/g)
Give bare numbers, in %ID/g.

Enquiry: // lookup tissue uptake at 2 h for CC(C)C[C@H](NC(=O)C[C@H](O)[C@H](CC(C)C)NC(=O)[C@H](Cc1c[nH]cn1)NC(=O)CNC(=O)[C@@H](NC(=O)[C@H](C)NC(=O)[C@H](Cc1c[nH]c2ccccc12)NC(=O)[C@H](CCC(N)=O)NC(=O)[C@@H](Cc1ccccc1)NC(=O)CCNC(=O)CCNC(=O)CN1CCN(CC(=O)O)CCN(CC(=O)O)CCN(CC(=O)O)CC1)C(C)C)C(N)=O [^68Ga-JMV4168, metal not drawn]
Return: 0.09

====

assay: in vivo; settings: male, nude BALB/c, mouse, iv, 200 pmol, total radioactivity, uptake in PC-3 tumors
outcome measure: tissue uptake at 2 h (%ID/g)
One number for each entry, in %ID/g.

Enquiry: // lookup tissue uptake at 2 h for CC(C)C[C@H](NC(=O)C[C@H](O)[C@H](CC(C)C)NC(=O)[C@H](Cc1c[nH]cn1)NC(=O)CNC(=O)[C@@H](NC(=O)[C@H](C)NC(=O)[C@H](Cc1c[nH]c2ccccc12)NC(=O)[C@H](CCC(N)=O)NC(=O)[C@@H](Cc1ccccc1)NC(=O)CCNC(=O)CCNC(=O)Cc1ccc(CN2CCN(CC(=O)O)CCN(CC(=O)O)CC2)cc1)C(C)C)C(N)=O [^68Ga-JMV5132, metal not drawn]
Return: 5.24

====

test: Small-animal PET/CT and biodistribution in mice bearing s.c. PC-3 xenografts; conditions: male, nude BALB/c, mouse, PC-3 tumor, iv, 200 pmol, total radioactivity, uptake in PC-3 tumors, 2 h after injection, i.v., 200 pmol
outcome measure: tissue uptake at 2 h (%ID/g)
Numbers only, in %ID/g.

Enquiry: // lookup tissue uptake at 2 h for CC(C)C[C@H](NC(=O)C[C@H](O)[C@H](CC(C)C)NC(=O)[C@H](Cc1c[nH]cn1)NC(=O)CNC(=O)[C@@H](NC(=O)[C@H](C)NC(=O)[C@H](Cc1c[nH]c2ccccc12)NC(=O)[C@H](CCC(N)=O)NC(=O)[C@@H](Cc1ccccc1)NC(=O)CCNC(=O)CCNC(=O)CN1CCN(CC(=O)O)CCN(CC(=O)O)CCN(CC(=O)O)CC1)C(C)C)C(N)=O [^68Ga-JMV4168, metal not drawn]
Return: 5.96

meta.source: patent US20150217006A1
